- Test system: johnsongrass (Sorghum halepense)
- test.description: Test C postemergence, plant response rating
- Assay type: in vivo
- conditions.used: 62 g ai/ha, scale 0 to 100 (0 no effect, 100 complete control)
quantity.measured: Johnsongrass plant response rating
Answer with a bare number; do not write a unit.

Sample answers from the record:
N#Cc1cccc(Oc2ncc(Cl)cn2)c1CCCCC(F)(F)F    20
O=C(CCCCC(F)(F)F)c1c(Br)cccc1Oc1ncc(Cl)cn1    10
FC(F)(F)CCCc1c(Br)cccc1Oc1ncc(Cl)cn1    10

Ask: For O=C(OCCC(F)(F)F)c1c(Br)cccc1Oc1ncc(Br)cn1 , what is its reported Johnsongrass plant response rating?
Result: 20

Ask: And for FC(F)(F)CCCCc1c(Cl)cccc1Oc1ncc(Cl)cn1 ?
Result: 10

Ask: And for CCCCC(=O)c1c(Oc2ncc(Cl)cn2)cccc1C(F)(F)F ?
Result: 10

Data origin: patent US11053204B2
